- Tested on: Cricetinae gen. sp.
- Protocol: The compound was evaluated for the hamster uterine contraction.
- Format: functional, Cricetulus griseus
Listed next: entries and their corresponding relative potency.

{"columns": ["Smiles notation", "relative potency"],
 "data": [
  ["CCCCC[C@@H](O)/C=C/[C@@]1(F)[C@H](O)C[C@H](O)[C@@H]1C/C=C\\CCCC(=O)OC", 0.022],
  ["CCCCC[C@H](O)/C=C/[C@@]1(F)[C@H](O)C[C@H](O)[C@@H]1C/C=C\\CCCC(=O)OC", 0.28],
  ["CCCCC[C@@H](O)/C=C/[C@@]1(F)[C@H](C/C=C\\CCCC(=O)OC)[C@H](O)C[C@@H]1O", 0.004],
  ["CCCCC[C@H](O)/C=C/[C@@]1(F)[C@H](O)C[C@H](O)[C@@H]1C/C=C\\CCCC(=O)O", 0.65],
  ["CCCCC[C@H](O)/C=C/[C@@]1(F)[C@H](C/C=C\\CCCC(=O)OC)[C@H](O)C[C@@H]1O", 0.0002]
]}
